We begin with a simple list: items and their reported pKd.
- STUDY TARGET: JAK1 JH2 (Homo sapiens (Human))
- Sequence (P23458 583-855): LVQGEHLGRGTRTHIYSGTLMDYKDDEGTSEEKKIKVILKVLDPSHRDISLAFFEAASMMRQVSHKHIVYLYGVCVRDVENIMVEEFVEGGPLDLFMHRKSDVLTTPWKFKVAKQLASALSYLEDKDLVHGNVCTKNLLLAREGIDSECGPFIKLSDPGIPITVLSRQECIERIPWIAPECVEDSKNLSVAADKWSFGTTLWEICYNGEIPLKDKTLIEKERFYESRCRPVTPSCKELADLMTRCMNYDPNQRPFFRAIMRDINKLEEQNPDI
- ASSAY NOTES: JAK1 JH2 binding (Kd, Table 2)
- RUN CONDITIONS: JH2 domain
pKd: −log10 of the molar value.
METRIC NAME: pKd

CNc1cc2nc3c(cnn13)C(=O)N[C@H](C)COCc1cc(c3c(c1)nnn3C)N2: 4.52 to 5.00
CNc1cc2nc3c(cnn13)C(=O)N[C@H](C(C)(C)O)COCc1cc(c3nnn(C)c3c1)N2: ≤ 4.52
CNc1cc2nn3c(cnc13)C(=O)N[C@H](C)COCc1cc(c3c(c1)nnn3C)N2: 6.00 to 8.00
CNc1cc2nn3c(cnc13)C(=O)N[C@H](CO)COCc1cc(c3nnn(C)c3c1)N2: 6.00 to 8.00
CNc1cc2nn3c(cnc13)C(=O)N[C@H](C)COCc1cc(c3nnn(C)c3c1)N2: 5.00 to 6.00
CNc1cc2nc3c(cnn13)C(=O)N[C@H](C)COCc1cc(c3nn(C)cc3c1)N2: 6.00 to 8.00
[2H]C1([2H])OC[C@@H](C)NC(=O)c2cnc3c(NC)cc(nn23)Nc2cc1cc1c2nnn1C: 6.00 to 8.00
CNc1cc2nn3c(cnc13)C(=O)N[C@H](C)COc1cnnc3ccc(cc13)N2: ≤ 4.52

---

- STUDY TARGET: TYK2 JH1 (Homo sapiens (Human))
- Sequence (P29597 897-1176): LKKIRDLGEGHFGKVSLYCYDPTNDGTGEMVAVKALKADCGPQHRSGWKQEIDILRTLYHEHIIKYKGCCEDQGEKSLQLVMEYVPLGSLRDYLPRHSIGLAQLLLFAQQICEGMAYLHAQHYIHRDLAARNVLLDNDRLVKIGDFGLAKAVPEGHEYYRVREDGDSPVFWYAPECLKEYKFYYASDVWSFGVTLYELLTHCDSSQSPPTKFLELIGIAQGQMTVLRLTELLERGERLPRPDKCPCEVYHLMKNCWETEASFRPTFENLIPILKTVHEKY
- ASSAY NOTES: TYK2 JH1 binding (Kd, Table 2)
- RUN CONDITIONS: JH1 domain
pKd: −log10 of the molar value. Counter-ions that a name gives are not always drawn.
# pKd per entry
METRIC NAME: pKd

CNc1cc2nn3c(cnc13)C(=O)N[C@H](C)COCc1cc(c3nn(C)cc3c1)N2: 5.00 to 6.00
CNc1cc2nc3c(cnn13)C(=O)N[C@H](C)[C@H](C)OCc1cc(c3nnn(C)c3c1)N2: ≤ 4.52
CNc1cc2nn3c(cnc13)C(=O)O[C@H](C)COCc1cc(c3nnn(C)c3c1)N2: ≤ 4.52
CNc1cc2nn3c(cnc13)C(=O)N[C@H](C)COCc1cc(c3c(c1)ncn3C)N2: 5.00 to 6.00
CNc1cc2nc3c(cnn13)C(=O)N[C@H](C)COCc1cc(c3ncn(C)c3c1)N2: 4.52 to 5.00
CNc1cc2nc3c(cnn13)C(=O)N[C@H](C)COCc1cc(c3c(c1)nnn3C)N2: ≤ 4.52
CNc1cc2nn3c(cnc13)C(=O)N[C@H](C)COCc1cc(cc3nc[nH]c13)N2 [Compound 97, hydrochloride]: 5.00 to 6.00
CNc1cc2nc3c(cnn13)C(=O)N[C@H](C)COCc1cc(c3cnn(C)c3c1)N2: 4.52 to 5.00
CNc1cc2nn3c(cnc13)C(=O)N[C@H](C)COc1ccnc3ccc(cc13)N2: 4.52 to 5.00
CNc1cc2nn3c(cnc13)C(=O)N[C@H](C)COCc1cc(c3nn(C)nc3c1)N2: 5.00 to 6.00
CNc1cc2nn3c(cnc13)C(=O)N[C@H](CO)COCc1cc(c3nnn(C)c3c1)N2: ≤ 4.52
CNc1cc2nc3c(cnn13)C(=O)NC(C(F)(F)F)COCc1cc(c3nnn(C)c3c1)N2 (centres unmarked): ≤ 4.52
CNc1cc2nc3c(cnn13)C(=O)N[C@H](C)[C@@H](C)OCc1cc(c3c(c1)nnn3C)N2: ≤ 4.52
CNc1cc2nc3c(cnn13)C(=O)N[C@H](C)COCc1cc(c3c(c1)ncn3C)N2: ≤ 4.52
CNc1cc2nc3c(cnn13)C(=O)NC(C(F)(F)F)COCc1cc(c3c(c1)nnn3C)N2 (centres unmarked): ≤ 4.52
CNc1cc2nc3c(cnn13)C(=O)N[C@H](C)[C@H](C)OCc1cc(c3c(c1)nnn3C)N2: ≤ 4.52
CNc1cc2nn3c(cnc13)C(=O)N[C@H](C)COCc1cc(cc3cn[nH]c13)N2: 6.00 to 8.00
CNc1cc2nc3c(cnn13)C(=O)N[C@H](C(C)(C)O)COCc1cc(c3nnn(C)c3c1)N2: ≤ 4.52
CNc1cc2nc3c(cnn13)C(=O)N[C@H](C)COCc1cc(c3cn(C)nc3c1)N2: 4.52 to 5.00
CNc1cc2nc3c(cnn13)C(=O)N[C@H](C)COCc1cc(c3nn(C)cc3c1)N2: ≤ 4.52
CNc1cc2nn3c(cnc13)C(=O)N[C@H](C)COCc1cc(c3ncn(C)c3c1)N2: 5.00 to 6.00
CNc1cc2nn3c(cnc13)C(=O)N[C@H](C)COCc1cc(c3c(cnn3C)c1)N2: 4.52 to 5.00
CNc1cc2nc3c(cnn13)C(=O)N[C@H](CO)[C@@H](C)OCc1cc(c3nnn(C)c3c1)N2: ≤ 4.52
Cc1nc2cnc3cn2c1C(=O)N[C@H](C)COCc1cc(c2nnn(C)c2c1)N3: ≤ 4.52
CNc1cc2nc3c(cnn13)C(=O)N[C@H](C)COCc1cc(c3nnn(C)c3c1)N2: ≤ 4.52
CNc1cc2nn3c(cnc13)C(=O)N[C@H](C)COCc1cc(c3c(c1)nnn3C)N2: 5.00 to 6.00
CNc1cc2nc3c(cnn13)C(=O)O[C@H](C)COCc1cc(c3nnn(C)c3c1)N2: ≤ 4.52
CNc1cc2nn3c(cnc13)C(=O)N[C@H](C)COc1cnnc3ccc(cc13)N2: ≤ 4.52
CNc1cc2nc3c(cnn13)C(=O)N[C@H](C)COCc1cc(c3nn(C)nc3c1)N2: ≤ 4.52
CNc1cc2nn3c(cnc13)C(=O)N[C@H](C)COCc1cc(c3cnn(C)c3c1)N2: 5.00 to 6.00
CNc1cc2nn3c(cnc13)C(=O)N[C@H](C)COCc1cc(cc3[nH]ncc13)N2 [Compound 96, hydrochloride]: 5.00 to 6.00
CNc1cc2nn3c(cnc13)C(=O)N[C@H](C)COCc1cc(c3nnn(C)c3c1)N2: ≤ 4.52
